reportedEndpoint: melting point

Here is how some compounds turned out for melting point.
INSERT INTO results (compound, reportedendpoint, resultvalue) VALUES
  ('COc1ccc(C=C2NC(=O)N(C)C2=O)cc1', 'melting point', '221 to 222 °C'),
  ('Cc1cc(Oc2ncc(C(F)(F)F)cc2Cl)nn1C(N)=O', 'melting point', '101 to 104 °C'),
  ('OC1CCN(c2nc(-c3ccccc3)cc(-c3ccc4c(c3)OCO4)n2)CC1', 'melting point', '120 to 122 °C'),
  ('CC(=O)Nc1ccc(N(C)C(=O)OCc2ccccc2)c(O)c1', 'melting point', '174 °C'),
  ('COc1cc(N)c(Cl)cc1C(=O)NCC1CNCCO1 (centres undefined)', 'melting point', '161 to 162 °C');

# compound Cc1nc(CO)n(COCc2ccccc2)c1Sc1ccccc1 ; its melting point = 87 to 88 °C

# compound O=C(NCCN1CCCCC1)c1ccc(=O)n(Cc2ccc(-c3ccccc3)cc2)c1 ; its melting point = 137 to 142 °C

# compound O=C(O)N[C@@H](CC1CCCCC1)[C@@H](O)[C@@H]1CCCS1 ; its melting point = 118 to 119 °C

# compound CC(C)c1ccccc1N1/C(=N\N=C/c2ccc(-c3ncn(-c4ccc(OC(F)(F)F)cc4)n3)cc2)SCC1(O)C(F)(F)F (centres undefined) ; its melting point = 185 to 187 °C

Each recorded value in this set is attributed to a melting point compilation (Tetko et al.; mined from patent text by program, amines drawn as free bases though some values may be those of a salt).
